The reported measurements were obtained from patent US20260209334A1.

Target: recombinant human IL-17A (produced in HEK cells, Proteintech HZ-1113) (human, UniProt Q16552 24-155)
Sequence (Q16552 24-155 limits assumed): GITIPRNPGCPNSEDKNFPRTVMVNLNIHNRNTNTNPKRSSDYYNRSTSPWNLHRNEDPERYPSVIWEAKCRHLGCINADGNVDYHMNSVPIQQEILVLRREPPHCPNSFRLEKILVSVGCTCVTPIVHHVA
Test: cell-based or functional assay
QUANTITY NAME: Neutralization potency, ranking from 1 = the best to 4 (HEK-Blue IL-17 reporter cells) (rank)

>>> value_measured("Bm42B11 (VHH, Class A, second generation) VHH: QVQLVESGGDLVQAGGSLRLSCSVSGLRVSSYAMGWFRQAPGKEREFVAAISWVGGDTRYADSVKGRFTMSRDNAKKQVYLEMNSLKPEDTAVYYCNDMPYGMETRMDDYASWGQGTQVTVSS")
1
>>> value_measured("Bm44G10 (VHH, Class C, second generation) VHH: QVQLVESGGGLVQPGGSLRLSCVASGFTFSSFAMSWYRQDPGRERKLVAAITNDGGTTFYSDLVKGRFTISRDNTKNTVYLQMNNVKPDDAAVYYCMAVRGLYGSNWYDYPFELWGQGTQVTVSS")
1
